assay: Displacement of [125I]Ang 2 from pig uterus membrane AT2 receptor after 1.5 hrs by micro-counter; design: species or system Sus scrofa
measurement label: Ki (nM)

| line notation | measurement label | numeric readout |
| --- | --- | --- |
| CCCCOC(=O)NS(=O)(=O)c1sc(CC(C)C)cc1-c1cccc(CN2CCCC2=O)c1 | Ki | 224 |

(I) CCCCOC(=O)NS(=O)(=O)c1sc(CC(C)C)cc1-c1cccc(CN(Cc2ccccc2)C(C)=O)c1
(II) CCCCOC(=O)NS(=O)(=O)c1sc(CC(C)C)cc1-c1cccc(Cn2ccnc2-c2cccs2)c1
(III) CCCCOC(=O)NS(=O)(=O)c1sc(CC(C)C)cc1-c1cccc(CN(CC)S(=O)(=O)c2cccs2)c1
(IV) CCCCOC(=O)NS(=O)(=O)c1sc(CC(C)C)cc1-c1cccc(CN(CC)C(=O)c2cccs2)c1
(V) CCCCOC(=O)NS(=O)(=O)c1sc(CC(C)C)cc1-c1cccc(CN(C)C(=O)OCC)c1
Challenge: Please rank these compounds by Ki in descending order. List the labels according to the requested ordering.
Response given: III, I, V, II, IV
(III: 133 nM, I: 79 nM, V: 45 nM, II: 28 nM, IV: 2.2 nM)

(1) CCCCOC(=O)NS(=O)(=O)c1sc(CC(C)C)cc1-c1cccc(C(=O)Cn2cnc3ccccc32)c1
(2) CCCCOC(=O)NS(=O)(=O)c1sc(CC(C)C)cc1-c1cccc(CN(CC)C(C)=O)c1
(3) CCCCOC(=O)NS(=O)(=O)c1sc(CC(C)C)cc1-c1cccc(Cn2cnc3cccnc32)c1
(4) CCCCOC(=O)NS(=O)(=O)c1sc(CC(C)C)cc1-c1cccc(CN(CC(F)(F)F)C(=O)C2CC2)c1
(5) CCCCOC(=O)NS(=O)(=O)c1sc(CC(C)C)cc1-c1cccc(Cn2ccnc2CCCC)c1
Challenge: Please list these in order of increasing Ki. Thank you! List the labels according to the requested ordering.
Response given: 5, 1, 2, 3, 4
(5: 10 nM, 1: 20 nM, 2: 29 nM, 3: 66 nM, 4: 163 nM)

(1) CCCCOC(=O)NS(=O)(=O)c1sc(CC(C)C)cc1-c1cccc(Cn2ccnc2C)c1
(2) CCCCOC(=O)NS(=O)(=O)c1sc(CC(C)C)cc1-c1cccc(CN(C(C)=O)c2ccc(C)cc2)c1
(3) CCCCOC(=O)NS(=O)(=O)c1sc(CC(C)C)cc1-c1cccc(Cn2ccc(C(F)(F)F)n2)c1
Challenge: Please list these in order of increasing Ki. Thank you! List the labels according to the requested ordering.
Response given: 1, 2, 3

(P) CCCCOC(=O)NS(=O)(=O)c1sc(CC(C)C)cc1-c1cccc(Cn2ccnc2CC)c1
(Q) CCCCOC(=O)NS(=O)(=O)c1sc(CC(C)C)cc1-c1cccc(CN(Cc2ccccc2)C(=O)c2cccs2)c1
(R) CCCCOC(=O)NS(=O)(=O)c1sc(CC(C)C)cc1-c1cccc(CN(C)C(=O)c2cccs2)c1
(S) CCCCOC(=O)NS(=O)(=O)c1sc(CC(C)C)cc1-c1cccc(CN2C(=O)CN(C)C2=O)c1
(T) CCCCOC(=O)NS(=O)(=O)c1sc(CC(C)C)cc1-c1cccc(CN(CC(F)(F)F)C(C)=O)c1
Challenge: Please list these in order of increasing Ki. Thank you! List the labels according to the requested ordering.
Response given: P, R, S, T, Q

(P) CCCCOC(=O)NS(=O)(=O)c1sc(CC(C)C)cc1-c1cccc(CN(C(=O)c2ccccc2)c2ccc(C)cc2)c1
(Q) CCCCOC(=O)NS(=O)(=O)c1sc(CC(C)C)cc1-c1cccc(Cn2cnc3ccccc32)c1
Challenge: Rank P against Q by their Ki values and give the higher one. Give the chosen item's label as your response.
Response given: P

(I) CCCCOC(=O)NS(=O)(=O)c1sc(CC(C)C)cc1-c1cccc(CN(Cc2cccnc2)C(=O)c2ccccc2)c1
(II) CCCCOC(=O)NS(=O)(=O)c1sc(CC(C)C)cc1-c1cccc(Cn2ccnc2Cl)c1
(III) CCCCOC(=O)NS(=O)(=O)c1sc(CC(C)C)cc1-c1cccc(Cn2ccnc2-c2ccccn2)c1
Challenge: Please rank these compounds by Ki in descending order. List the labels according to the requested ordering.
Response given: I, III, II

(I) CCCCOC(=O)NS(=O)(=O)c1sc(CC(C)C)cc1-c1cccc(Cn2cnc3ncccc32)c1
(II) CCCCOC(=O)NS(=O)(=O)c1sc(CC(C)C)cc1-c1cccc(CN(C)C(C)=O)c1
(III) CCCCOC(=O)NS(=O)(=O)c1sc(CC(C)C)cc1-c1cccc(CN(Cc2cccnc2)C(C)=O)c1
(IV) CCCCOC(=O)NS(=O)(=O)c1sc(CC(C)C)cc1-c1cccc(CN(C)C(=O)C(=O)OCC)c1
Challenge: Please rank these compounds by Ki in descending order. List the labels according to the requested ordering.
Response given: III, I, II, IV
